Collected rel. KD (against wildtype ActR-IIBECD on the same ligand) values appear next to each entry.
- TARGET SYSTEM: T1, activin A (Sf9 cells) (UniProt P08476 311-426, biotin (biotinylated for the biosensor; site not stated))
- T1 construct: activin A (dimer of inhibin beta A chains), mature ligand; also called Act-A; source: Sf9 cells [59]
- T1 sequence (looked up): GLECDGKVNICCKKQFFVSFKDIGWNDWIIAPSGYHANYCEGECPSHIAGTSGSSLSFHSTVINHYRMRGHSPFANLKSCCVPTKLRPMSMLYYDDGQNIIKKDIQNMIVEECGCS
- METHOD NOTES: SPR; BIACORE 2000; biotinylated ligand on a streptavidin-modified CM5 chip (about 200 RU); receptor ectodomain as analyte at 1, 2, 3, 5, 10, 20 and 50 uM; HBS500 (10 mM HEPES pH 7.4, 500 mM NaCl, 3.4 mM EDTA, 0.005% P20); apparent KD from the dose dependence of equilibrium binding
- CONDITION SET: both partners purified
Could you give me the number in fold? Just the number is fine.

Record excerpt, results attached:
BINDER: ActR-IIBECD Y42A (receptor, UniProt P27040 19-137, looked up, source: E. coli OrigamiB (DE3), purified (Ni2+-IMAC, thrombin cleavage, anion exchange, RP-HPLC)) SGRGEAETRECIYYNANWELERTNQSGLERCEGEQDKRLHCAASWRNSSGTIELVKKGCWLDDFNCYDRQECVATEENPQVYFCCCEGNFCNERFTHLPEPGGPEVTYEPPPTAPTLLT
OBSERVED MEASUREMENT: 290
//
BINDER: ActR-IIBECD K37A (receptor, UniProt P27040 19-137, looked up, source: E. coli OrigamiB (DE3), purified (Ni2+-IMAC, thrombin cleavage, anion exchange, RP-HPLC)) SGRGEAETRECIYYNANWELERTNQSGLERCEGEQDARLHCYASWRNSSGTIELVKKGCWLDDFNCYDRQECVATEENPQVYFCCCEGNFCNERFTHLPEPGGPEVTYEPPPTAPTLLT
OBSERVED MEASUREMENT: 0.7
//
BINDER: ActR-IIBECD E34A (receptor, UniProt P27040 19-137, looked up, source: E. coli OrigamiB (DE3), purified (Ni2+-IMAC, thrombin cleavage, anion exchange, RP-HPLC)) SGRGEAETRECIYYNANWELERTNQSGLERCEGAQDKRLHCYASWRNSSGTIELVKKGCWLDDFNCYDRQECVATEENPQVYFCCCEGNFCNERFTHLPEPGGPEVTYEPPPTAPTLLT
OBSERVED MEASUREMENT: 1
//
BINDER: ActR-IIBECD D63A (receptor, UniProt P27040 19-137, looked up, source: E. coli OrigamiB (DE3), purified (Ni2+-IMAC, thrombin cleavage, anion exchange, RP-HPLC)) SGRGEAETRECIYYNANWELERTNQSGLERCEGEQDKRLHCYASWRNSSGTIELVKKGCWLDAFNCYDRQECVATEENPQVYFCCCEGNFCNERFTHLPEPGGPEVTYEPPPTAPTLLT
OBSERVED MEASUREMENT: 8.6

query: What measured rel. KD (against wildtype ActR-IIBECD on the same ligand) goes with ActR-IIBECD K56A (receptor, UniProt P27040 19-137, looked up, source: E. coli OrigamiB (DE3), purified (Ni2+-IMAC, thrombin cleavage, anion exchange, RP-HPLC)) SGRGEAETRECIYYNANWELERTNQSGLERCEGEQDKRLHCYASWRNSSGTIELVAKGCWLDDFNCYDRQECVATEENPQVYFCCCEGNFCNERFTHLPEPGGPEVTYEPPPTAPTLLT ?
result: 2.7

query: What about ActR-IIBECD R46A (receptor, UniProt P27040 19-137, looked up, source: E. coli OrigamiB (DE3), purified (Ni2+-IMAC, thrombin cleavage, anion exchange, RP-HPLC)) SGRGEAETRECIYYNANWELERTNQSGLERCEGEQDKRLHCYASWANSSGTIELVKKGCWLDDFNCYDRQECVATEENPQVYFCCCEGNFCNERFTHLPEPGGPEVTYEPPPTAPTLLT ?
result: 2.9

query: Record: ActR-IIBECD L61A (receptor, UniProt P27040 19-137, looked up, also called ActR-IIBL61A; source: E. coli OrigamiB (DE3), purified (Ni2+-IMAC, thrombin cleavage, anion exchange, RP-HPLC)) SGRGEAETRECIYYNANWELERTNQSGLERCEGEQDKRLHCYASWRNSSGTIELVKKGCWADDFNCYDRQECVATEENPQVYFCCCEGNFCNERFTHLPEPGGPEVTYEPPPTAPTLLT
result: 24

query: Check ActR-IIBECD Q80A (receptor, UniProt P27040 19-137, looked up, source: E. coli OrigamiB (DE3), purified (Ni2+-IMAC, thrombin cleavage, anion exchange, RP-HPLC)) SGRGEAETRECIYYNANWELERTNQSGLERCEGEQDKRLHCYASWRNSSGTIELVKKGCWLDDFNCYDRQECVATEENPAVYFCCCEGNFCNERFTHLPEPGGPEVTYEPPPTAPTLLT too.
result: 1.1

query: Next binder up: ActR-IIBECD L61P (receptor, UniProt P27040 19-137, looked up, also called ActR-IIBL61P; source: E. coli OrigamiB (DE3), purified (Ni2+-IMAC, thrombin cleavage, anion exchange, RP-HPLC)) SGRGEAETRECIYYNANWELERTNQSGLERCEGEQDKRLHCYASWRNSSGTIELVKKGCWPDDFNCYDRQECVATEENPQVYFCCCEGNFCNERFTHLPEPGGPEVTYEPPPTAPTLLT
result: 2510
